This collection of values is drawn from patent US12466831B2.

target system: human A2a adenosine receptor (Homo sapiens, UniProt P29274)
Construct: purchased Perkin Elmer RBHA2aM400UA; host or cells: HEK293 or CHO cells (recombinant expression)
Sequence (P29274 whole entry): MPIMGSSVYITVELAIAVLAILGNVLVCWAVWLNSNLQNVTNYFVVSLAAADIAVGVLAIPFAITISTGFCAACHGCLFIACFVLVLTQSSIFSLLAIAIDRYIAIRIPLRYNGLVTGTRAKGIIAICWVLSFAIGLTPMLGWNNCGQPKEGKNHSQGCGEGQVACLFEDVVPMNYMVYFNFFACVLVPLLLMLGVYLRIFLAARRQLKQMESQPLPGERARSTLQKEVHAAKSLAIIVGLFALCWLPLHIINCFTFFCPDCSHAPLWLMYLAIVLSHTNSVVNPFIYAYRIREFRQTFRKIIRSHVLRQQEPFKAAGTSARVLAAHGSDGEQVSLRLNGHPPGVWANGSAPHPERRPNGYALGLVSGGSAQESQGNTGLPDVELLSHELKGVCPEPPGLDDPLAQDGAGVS
assay notes: A2a binding affinity using radioligand binding, Method (A)
experimental context: Method (A): [3H]SCH58261 filtration binding, membranes expressing human A2a
Assign classes using reported IC50 values and the ranges low: < 8 nM; intermediate: ≥ 8 nM and < 50 nM; high: ≥ 50 nM, please.

INSERT INTO results (compound, target_system, qualitative_label) VALUES
  ('Cc1c(-c2ncco2)nc(N)c2nc(C3(c4ncccc4F)CC3)nn12', 'human A2a adenosine receptor (Homo sapiens, UniProt P29274)', 'high'),
  ('Cc1c(-c2ncco2)nc(N)n2nc(C3CCCC(C)(O)C3)nc12 (single isomer, unassigned) [Example 8.2-2]', 'human A2a adenosine receptor (Homo sapiens, UniProt P29274)', 'high'),
  ('Cc1nn(CC(C)(C)O)cc1N1CCC[C@@H](c2nc3c(C)c(-c4ncco4)nc(N)n3n2)C1', 'human A2a adenosine receptor (Homo sapiens, UniProt P29274)', 'low'),
  ('Cc1c(-c2cccc(F)c2)nc(N)c2nc(C3CCCC(C)(O)C3)nn12 (single isomer, unassigned) [Example 8.10-1]', 'human A2a adenosine receptor (Homo sapiens, UniProt P29274)', 'high'),
  ('CCn1cc(N2C[C@@H](c3nc4c(C)c(-c5cccc(F)c5)nc(N)n4n3)CC[C@H]2C)cn1', 'human A2a adenosine receptor (Homo sapiens, UniProt P29274)', 'intermediate'),
  ('Nc1nc(-c2ncco2)cc2nc([C@@H]3CC(F)(F)CN3)nn12', 'human A2a adenosine receptor (Homo sapiens, UniProt P29274)', 'high'),
  ('Cc1c(-c2ncco2)nc(N)n2nc([C@@H]3CCCN(c4cnn(C(C)C)c4)C3)nc12', 'human A2a adenosine receptor (Homo sapiens, UniProt P29274)', 'low'),
  ('Cc1c(-c2ncco2)nc(N)n2nc(C3CCCC(C)(O)C3)nc12 (single isomer, unassigned) [Example 8.2-1]', 'human A2a adenosine receptor (Homo sapiens, UniProt P29274)', 'intermediate'),
  ('Cc1c(-c2ncco2)nc(N)n2nc([C@H]3C[C@H](c4ccc(C(C)(C)O)cn4)C3)nc12', 'human A2a adenosine receptor (Homo sapiens, UniProt P29274)', 'low'),
  ('Cc1c(-c2cc(F)ccc2F)nc(N)c2nc([C@@H]3CCCN(c4cnn(C)c4)C3)nn12 (single isomer, unassigned)', 'human A2a adenosine receptor (Homo sapiens, UniProt P29274)', 'high'),
  ('Cc1c(-c2ncco2)nc(N)n2nc([C@H]3C[C@H](c4ccc(C(C)(C)N)cn4)C3)nc12', 'human A2a adenosine receptor (Homo sapiens, UniProt P29274)', 'intermediate'),
  ('Cc1c(-c2ncco2)nc(N)n2nc([C@H]3C[C@@H](c4ccc(C(C)(C)N)cn4)C3)nc12', 'human A2a adenosine receptor (Homo sapiens, UniProt P29274)', 'intermediate'),
  ('Nc1nc(-c2ccccc2)cc2nc([C@@H]3CC(F)(F)CN3C(=O)C3CC3)nn12', 'human A2a adenosine receptor (Homo sapiens, UniProt P29274)', 'intermediate'),
  ('CCn1cc(N2CCC[C@@H](c3nc4c(C)c(-c5ncco5)nc(N)n4n3)C2)cn1', 'human A2a adenosine receptor (Homo sapiens, UniProt P29274)', 'low'),
  ('Cc1c(-c2ncco2)nc(N)n2nc([C@@H]3CCCN(c4cnn(CC5(O)CCC5)c4)C3)nc12', 'human A2a adenosine receptor (Homo sapiens, UniProt P29274)', 'low'),
  ('CCn1cc(N2C[C@H](c3nc4c(C)c(-c5cccc(F)c5)nc(N)n4n3)CC[C@@H]2C)cn1', 'human A2a adenosine receptor (Homo sapiens, UniProt P29274)', 'intermediate');
